System: Rattus norvegicus
EXPERIMENT_DESCRIPTION: Biodistribution in kidney of immature female rat after 1 hr administration of 3 micro Ci (111 kBq) in the presence of (+E2)
Format: ADME, organism-based
EXPERIMENTAL_SETUP: in vivo
RESULT_TYPE: ID/g (%)

| CHEMICAL_STRING | ID/g, % |
| --- | --- |
| C[C@]12CC[C@@H]3c4ccc(O)c(F)c4CC[C@H]3[C@@H]1CC[C@@]2(O)/C=C/I | 0.87 |
| C[C@@H]1Cc2c(ccc(O)c2F)[C@H]2CC[C@@]3(C)[C@@H](CC[C@@]3(O)/C=C/I)[C@H]12 | 1.82 |
| CO[C@H]1C[C@@]2(C)[C@@H](CC[C@@]2(O)/C=C/I)[C@@H]2CCc3cc(O)c(F)cc3[C@H]21 | 1.58 |
| C[C@@H]1Cc2cc(O)c(F)cc2[C@H]2CC[C@@]3(C)[C@@H](CC[C@@]3(O)/C=C\I)[C@H]12 | 0.62 |

A = C[C@]12CC[C@@H]3c4cc(F)c(O)cc4CC[C@H]3[C@@H]1CC[C@@]2(O)/C=C/I
B = CO[C@H]1C[C@@]2(C)[C@@H](CC[C@@]2(O)/C=C\I)[C@@H]2CCc3c(ccc(O)c3F)[C@H]21
Ask: Identify the entry with the smaller ID/g: A or B . Please indicate the selected item by its label.
Reply: A

----------
Tested on: Rattus norvegicus
EXPERIMENT_DESCRIPTION: Biodistribution in uterus / blood of immature female rat after 1 hr administration of 3 micro Ci (111 kBq) in the presence of (+E2)
Type: ADME, organism-based
EXPERIMENTAL_SETUP: in vivo
RESULT_TYPE: uterus/blood %ID/g ratio (%)

// below: answered compounds
| CHEMICAL_STRING | TESTED_ON | uterus/blood %ID/g ratio (%) |
| --- | --- | --- |
| CO[C@H]1C[C@@]2(C)[C@@H](CC[C@@]2(O)/C=C\I)[C@@H]2CCc3c(ccc(O)c3F)[C@H]21 | Rattus norvegicus | 1.3 |
| C[C@]12CC[C@@H]3c4ccc(O)c(F)c4CC[C@H]3[C@@H]1CC[C@@]2(O)/C=C/I | Rattus norvegicus | 1.02 |
| C[C@]12CC[C@@H]3c4ccc(O)c(F)c4CC[C@H]3[C@@H]1CC[C@@]2(O)/C=C\I | Rattus norvegicus | 1.65 |
| C[C@@H]1Cc2cc(O)c(F)cc2[C@H]2CC[C@@]3(C)[C@@H](CC[C@@]3(O)/C=C/I)[C@H]12 | Rattus norvegicus | 1.34 |

a = CO[C@H]1C[C@@]2(C)[C@@H](CC[C@@]2(O)/C=C/I)[C@@H]2CCc3cc(O)c(F)cc3[C@H]21
b = C[C@@H]1Cc2c(ccc(O)c2F)[C@H]2CC[C@@]3(C)[C@@H](CC[C@@]3(O)/C=C/I)[C@H]12
c = C[C@]12CC[C@@H]3c4cc(F)c(O)cc4CC[C@H]3[C@@H]1CC[C@@]2(O)/C=C/I
Ask: Put the compounds in ascending order of uterus/blood %ID/g ratio. Return the labels ranked in the requested order, please.
Reply: c, a, b

----------
System: Rattus norvegicus
EXPERIMENT_DESCRIPTION: Biodistribution in uterus of immature female rat after 1 hr administration of 3 micro Ci (111 kBq) in the absence of 60 microg estradiol
Format: ADME, organism-based
EXPERIMENTAL_SETUP: in vivo
RESULT_TYPE: ID/g (%)

// below: answered compounds
| CHEMICAL_STRING | VALUE_REPORTED |
| --- | --- |
| C[C@]12CC[C@@H]3c4ccc(O)c(F)c4CC[C@H]3[C@@H]1CC[C@@]2(O)/C=C\I | 10.44 |
| CO[C@H]1C[C@@]2(C)[C@@H](CC[C@@]2(O)/C=C/I)[C@@H]2CCc3cc(O)c(F)cc3[C@H]21 | 4.41 |
| C[C@@H]1Cc2c(ccc(O)c2F)[C@H]2CC[C@@]3(C)[C@@H](CC[C@@]3(O)/C=C/I)[C@H]12 | 4.71 |
| C[C@@H]1Cc2c(ccc(O)c2F)[C@H]2CC[C@@]3(C)[C@@H](CC[C@@]3(O)/C=C\I)[C@H]12 | 3.55 |
| C[C@@H]1Cc2cc(O)c(F)cc2[C@H]2CC[C@@]3(C)[C@@H](CC[C@@]3(O)/C=C/I)[C@H]12 | 1.03 |

A = C[C@]12CC[C@@H]3c4ccc(O)c(F)c4CC[C@H]3[C@@H]1CC[C@@]2(O)/C=C/I
B = C[C@]12CC[C@@H]3c4cc(F)c(O)cc4CC[C@H]3[C@@H]1CC[C@@]2(O)/C=C/I
Ask: When A and B are compared, which has the higher number for ID/g? Please indicate the selected item by its label.
Reply: A
